test system: NCI-H522 lung; assay: NCI tumour cell line growth inhibition, 48 h
Assay metric: TGI (µM)
Your answer should be a plain number; it is taken to be in µM.

COC(=O)[C@]12CC[C@@H](C)[C@H](C)[C@@H]1C1=CC[C@@H]3[C@@]4(C)C(C=O)=C[C@@](C)(COC(=O)/C=C/c5ccccc5)[C@@H]4[C@H](O)C[C@@]3(C)[C@]1(C)CC2 | 17.4
Cc1ccc(S(=O)(=O)N2CCc3ccc(O)c4c3C2Cc2ccc3c(c2-4)OCO3)cc1 (centres undefined) | 2.08

// query Can you look up TGI on NCI-H522 lung for FC(F)(F)c1cc(Nc2ccc3cc(OCCCN4CCOCC4)ccc3n2)ccc1Cl ?
// result 3.82

###

Listed below: TGI values for each entry.
tested on: HT29 colon; assay: NCI tumour cell line growth inhibition, 48 h

# example entries with known answers
N#Cc1c(O)c2ccccc2[nH]c1=O | > 100 µM
CCCCc1ccc(C#CC#Cc2ccc(CCCC)s2)s1 | > 100 µM
CCc1cccc(C)c1NC(=S)NC(=O)c1ccccc1C(=O)NC(=S)Nc1c(C)cccc1CC | > 100 µM

// query For the compound shown here, COc1ccc(N(C)c2nc(Cl)nc3cnn(C)c23)cc1 , give the reported TGI.
// result > 100 µM

// query Name the recorded TGI for O=C1CC2SC(COCc3ccccc3)(CCN2Cc2ccccc2)C1 (centres undefined) .
// result > 100 µM

// query TGI for COc1cc(/C=C2/C(=O)N(C(=O)OCc3ccccc3)C(Cc3cc(OC)c(OC)c(C)c3OC)C(=O)N2Cc2ccccc2)c(OC)c(C)c1OC (centres undefined) ?
// result > 100 µM

###

test system: HOP-92 NSCLC; test: NCI tumour cell line growth inhibition, 48 h
Assay metric: log10 TGI (log10 of the value in µM)
Values reflect log10 of reported TGI (µM).

Before answering, review these 5 worked examples.
c1ccc(N/N=C2\NN=C(c3ccccc3)CS2)cc1 | 1.50
O=C1O/C(=C\c2ccc(O)cc2)C(c2ccc(O)c(Cl)c2)=C1Cl | 1.78
CSc1ccc(C(=O)/C=C/c2ccccc2Cl)cc1 | 1.51
C[CH2][Sn]([CH2]C)([O]C(=O)c1ccc(OC)c(OC)c1OC)[O]C(=O)c1ccc(OC)c(OC)c1OC | 1.70
COc1ccc2c(c1)C(=O)c1c-2c(Nc2cccc(C(C)=O)c2)nc2ccccc12 | 1.44

// query Bench note: what log10 TGI did Nc1nc(=S)n(-c2ccc(Cl)cc2)c2nc3ccccc3cc12 show?
// result 1.92

// query Look at this compound and give its reported log10 TGI. COC1C(O)C(C)OC(OC2CCC3(C)C(CCC4C3C(O)CC3(C)C(C5=CC(=O)OC5)CCC43O)C2)C1O (stereo not given)
// result 0.52

// query // lookup log10 TGI for CCCCCCCCC/C=C1/CC(CO)(COC(=O)c2ccccc2)OC1=O (stereo not given)
// result 1.16

// query Give the measured log10 TGI of CN(C)c1ccc(N=C2C=CC(=O)c3ccccc32)cc1 .
// result 1.27

// query If you can, please state the reported log10 TGI value of COc1cc(/C=C2\C[C@H]3[C@@H]4CC=C5C[C@@H](OC(C)=O)CC[C@]5(C)[C@H]4CC[C@]3(C)[C@H]2OC(C)=O)ccc1OCCN1CCCC1 .
// result 1.13

// query Query (compound): C[Si](C)(C)C(Sc1ccccc1)(Sc1ccccc1)Sc1ccccc1 ; field requested: log10 TGI
// result 1.97

###

Recorded TGI values for a group of compounds are listed next.
tested on: HT29 colon; experiment: NCI tumour cell line growth inhibition, 48 h

Look over these answered cases.
Clc1c2ccccc2nc2c1[nH]c1ccccc12 | 34.3 µM
CCN(Cc1ccc(F)cc1)c1ccc(CO)c(OC)c1 | > 67.5 µM
CN(C(=O)c1ccco1)C(=S)N1CCN(c2ccccn2)CC1 | > 100 µM
Cn1c(N=P(c2ccccc2)(c2ccccc2)c2ccccc2)c([N+](=O)[O-])c(=O)n(C)c1=O | > 100 µM

Next:
// query What measured TGI goes with O=C1C2C3C=CC(C2C(=O)N1CN1CCSCC1)C1C2C(=O)N(CN4CCSCC4)C(=O)C2C31 (stereo not given) ?
// result > 100 µM

###

A collection of compounds and their measured TGI
tested on: DMS 273 small cell lung; assay: NCI tumour cell line growth inhibition, 48 h

Study these solved cases before continuing.
Cc1cc(Cl)ccc1NC(=O)C(=O)C(C(=O)c1ccccc1)C1OC(=O)c2ccccc21 (stereo unspecified) | > 100 µM
C=CCN(N=O)C(=O)NCCCCC(NC(C)=O)C(=O)NCc1ccccc1 (stereo unspecified) | > 100 µM
Cc1ccc2nc(NC(=O)/C(=N\NC(=S)NN)C3C(=O)NC(=S)NC3=O)sc2c1 | > 100 µM
O=c1c([OH2+])c(-c2ccc(O)cc2[O-])oc2cc(O)cc([O-])c12.O=c1c([OH2+])c(-c2ccc(O)cc2[O-])oc2cc(O)cc([O-])c12.[Ti+4] | > 100 µM
CCN=C(C#N)NCC | > 100 µM

Read the next record carefully.
// query Give its TGI value. Item: C=CCCCCCCCCC(=O)O
// result 289 µM

###

system: NCI-H522 lung; experiment: NCI tumour cell line growth inhibition, 48 h
Assay metric: TGI

Previously resolved entries follow.
CN(C(=O)c1ccco1)C(=S)N1CCN(c2ccccn2)CC1 | > 100 µM
Cc1csc(NNC(=O)Nc2ccccc2)n1 | > 100 µM
C#Cc1cccc(NC(=O)c2ccc(NC(=O)CCl)cc2)c1 | 35 µM
C=CCc1c(O)c(C(=O)/C=C/c2ccccc2)c(OC)c2ccoc12 | 9.28 µM
C=C(CCCO)[C@@H]1CC[C@@](C)(O)[C@H]1C | > 100 µM

// query GET /values?readout=TGI&system=NCI-H522 lung&item= N#CC1C(=O)NC(c2ccccc2[N+](=O)[O-])c2sc3c(F)cccc3c21 (stereo unspecified)
// result 48 µM

###

system: HT29 colon; experiment: NCI tumour cell line growth inhibition, 48 h
Listing of entries alongside the reported TGI.
Dear colleague, please return just the value in µM, with no unit written.

Here's what some known entries look like.
S=C=NC1CCC(c2cc3ccccc3s2)(N2CCCCC2)CC1 (stereo unspecified) | 3.66
CCN1CCC(O)(c2ccc(O)cc2)C(C(=O)c2ccc(O)cc2)C1 (stereo unspecified) | 64.9

// query TGI value for entry COc1ccc(OC)c2c3c([nH]c12)C(=O)Nc1nc(N)nc(N)c1C3
// result 4.49

// query Look at this molecule and give its reported TGI. Cc1c(F)c(NC(=O)CN(C)C)c2c(=O)cc(-c3ccc(NC(=O)CN(C)C)c(F)c3)oc2c1F
// result 33.8

// query Quick check: TGI of Cc1ccc(S(=O)(=O)Nc2ccc(-c3cc(-c4cccc(F)c4)c(C#N)c(N)n3)cc2)cc1 ?
// result 12.3

// query # lookup: TGI of COC1=CC(=O)c2nc(Cl)ccc2C1=O
// result 4.74

// query Suppose we examine the molecule O=[N+]([O-])c1ccc(Sc2ccncn2)c([N+](=O)[O-])c1 ; what TGI value has been reported?
// result 3.81

// query # lookup: TGI of COC(=O)[C@]12CC[C@@H](C)[C@H](C)[C@@H]1C1=CC[C@@H]3[C@@]4(C)C(C=O)=C[C@@](C)(COC(=O)/C=C/c5ccccc5)[C@@H]4[C@H](O)C[C@@]3(C)[C@]1(C)CC2
// result 10.2

// query Please look up its TGI: COc1cccc(/C=C\c2ccc(O)cc2)c1
// result 53.7

###

This section presents molecules with their documented TGI values.
test system: SNB-19 CNS; experiment: NCI tumour cell line growth inhibition, 48 h
// note: answer is a bare numeric in µM

// query Given CN1CCN(Cc2ccc(NC(=O)c3cncc(C#Cc4cnc(N)c5cnccc45)c3)cc2C(F)(F)F)CC1 , state its recorded TGI.
// result 10.9

// query Looking for the measured TGI of CCC[CH2][Pb]([Cl])([CH2]CCC)[CH2]CCC , can you help?
// result 0.33

// query Which TGI value belongs to O=C1c2ccccc2C(=O)c2c(NCCCN3CCOCC3)ccc(NCCCN3CCOCC3)c21 ?
// result 41

// query What measured TGI goes with CC(C)[C@@H](C)[C@@]1(C)C[C@@H]1[C@@H](C)[C@H]1CC[C@@H]([C@@H]2CC=C3C[C@@H](O)CC[C@]3(C)C2=O)[C@]1(C)CCO ?
// result 25.1

###

system: IGROV1 ovarian; assay: NCI tumour cell line growth inhibition, 48 h
The reader will find reported GI50 values listed item by item below.

Worked examples, 2 molecules total:
Cc1cc(=O)oc2cc(OC/C=C3\CCC(=O)O3)ccc12 | 13.2 µM
Cc1ccc(S(=O)(=O)N2CCc3ccc(O)c4c3C2Cc2ccc3c(c2-4)OCO3)cc1 (stereo not drawn) | 0.708 µM

Turning now to a further molecule:
// query Field request: GI50 | item: COC(=O)[C@]12CC[C@@H](C)[C@H](C)[C@@H]1C1=CC[C@@H]3[C@@]4(C)C(C=O)=C[C@@](C)(COC(=O)/C=C/c5ccccc5)[C@@H]4[C@H](O)C[C@@]3(C)[C@]1(C)CC2
// result 4.34 µM
